pIC50: −log10 of the molar value.
UniProt P03372 pIC50 data
Sequence (P03372 311-547): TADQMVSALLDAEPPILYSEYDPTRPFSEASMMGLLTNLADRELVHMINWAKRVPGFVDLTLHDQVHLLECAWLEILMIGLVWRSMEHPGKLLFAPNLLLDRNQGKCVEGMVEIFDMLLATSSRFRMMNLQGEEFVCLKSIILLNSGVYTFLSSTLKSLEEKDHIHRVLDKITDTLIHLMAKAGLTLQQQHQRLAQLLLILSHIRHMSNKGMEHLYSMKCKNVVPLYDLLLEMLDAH

Compound	pIC50
C[C@H]1Cc2c([nH]c3ccccc23)[C@H](c2c(F)cc(OCCN3CCN(C(=O)c4cc(Cc5n[nH]c(=O)c6ccccc56)ccc4F)CC3)cc2F)N1CC(C)(C)F (stereo in doubt) [Compound 2.51]	7.36
CC/C(=C(/c1ccc(OCCCCCCN2CCN(C(=O)c3cc(Cc4n[nH]c(=O)c5ccccc45)ccc3F)CC2)cc1)c1ccc2[nH]ncc2c1)c1ccc(Cl)cc1F [Compound 2.52]	8.28
CC/C(=C(/c1ccc(OCCCOCCN2CCN(C(=O)c3cc(Cc4n[nH]c(=O)c5ccccc45)ccc3F)CC2)cc1)c1ccc2[nH]ncc2c1)c1ccc(Cl)cc1F [Compound 2.54]	7.19

====

system: HT-29 cells; assay: Cell proliferation assay, CellTiter Glo; type: cell-based; conditions: Homo sapiens, HT-29, 72 h; cell growth inhibition, three days of treatment
Measured Property: IC50

Compound	Target System	Result
Cn1ncnc1[C@H]1c2n[nH]c(=O)c3cc(F)cc(c23)N[C@@H]1c1ccc(N2C(=S)N(c3ccc(C#N)c(C(F)(F)F)c3)C(=O)C2(C)C)cc1 [Compound 1.2a]	HT-29 cells	> 10 µM
Cn1ncnc1[C@H]1c2n[nH]c(=O)c3cc(F)cc(c23)N[C@@H]1c1ccc(OC[C@](C)(O)C(=O)Nc2ccc(C#N)c(C(F)(F)F)c2)cc1 [Compound 1.1a]	HT-29 cells	> 10 µM
Cn1ncnc1[C@@H]1c2n[nH]c(=O)c3cc(F)cc(c23)N[C@H]1c1ccc(N2C(=S)N(c3ccc(C#N)c(C(F)(F)F)c3)C(=O)C2(C)C)cc1 [Compound 1.2b]	HT-29 cells	> 10 µM

Measured values drawn from patent US11826430B2 for this set.
